IC50 values by entry
test system: P9D5 and P7H3; experiment: Competition ELISA, results stated jointly for both mAbs; assay type: binding, mouse; details: range over P9D5 and P7H3

# compound, IC50
rows = [
    ("NCCN(CCCC(=O)c1cccnc1)N=O", "4.4 to 12 µM"),
    ("CCOC(=O)c1cccnc1 [ENAT, ethylnicotinate]", "49 to 80 µM"),
    ("CN(CCCC(O)c1cccnc1)N=O (stereo not shown)", "29 to 93 µM"),
]

Please find the next compound below.
Give the reported value of IC50 for this record: `CN(CCCC(=O)c1cccnc1)N=O`
80 to 160 µM

---

system: P7H3; experiment: Competition ELISA with mAb P7H3; assay type: binding, mouse; conditions: competition ELISA, result in words
reported endpoint: inhibition of P7H3 binding

# molecule, reported endpoint, result
records = [
    ("O=C(CCCO)c1cccnc1 [HPB, 4-hydroxy-1-(3-pyridyl)-1-butanone]", "inhibition of P7H3 binding", "moderately inhibited"),
    ("O=C(O)CCC(=O)c1cccnc1", "inhibition of P7H3 binding", "moderately inhibited"),
    ("OCCCC(O)c1cccnc1 (stereo not shown)", "inhibition of P7H3 binding", "moderately inhibited"),
    ("O=C(O)CCC(O)c1cccnc1 (stereo not shown)", "inhibition of P7H3 binding", "moderately inhibited"),
]
